- Test Protocol: chemical genetic growth profiling, strain panel (AID 1159580);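 also: tested at 20 µM; growth read once vehicle control cultures reached saturation at 30 °C; 1 = growth at the plate median or of vehicle wells; lower values mean less growth of the strain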
- Condition Details: S. cerevisiae deletion strains, growth OD, locus YDR318W, strain mcm21, hits give low values
About 2,000 (36%) of roughly 5,500 compounds were called active. Not shown: some 18% with an inconclusive outcome. This is one part of the list.
Experimental Readout: normalized growth

Illustrative cases are given below, each with its answer.
| Compound | normalized growth |
| --- | --- |
| CC(=O)Oc1ccc2c(c1OC(C)=O)OCC1(O)Cc3c(cc(OC(C)=O)c(OC(C)=O)c3OC(C)=O)C21 (centres undefined) | 1.02 (inactive) |
| CC12CCC3c4ccc(OCc5ccccc5)cc4CCC3C1C[C@@H](O)[C@@H]2O (some centres undefined) | 0.076 (active) |
| Cc1cc(OC(=O)c2c(C)cc(OC(=O)c3c(C)cc(O)cc3O)cc2O)cc(O)c1C(=O)O | 0.967 (inactive) |
| O=C(O[C@@H]1Cc2c(O)cc(O)cc2O[C@@H]1c1cc(O)c(=O)c2c(O)c(O)cc([C@H]3Oc4cc(O)cc(O)c4C[C@H]3O)c2c1)c1cc(O)c(O)c(O)c1 | 0.877 (active) |
| CC(C)(C)NCC(O)c1cc(O)cc(O)c1 (centres undefined) | 0.979 (inactive) |

Exercise: Please look up its normalized growth: `COc1cc(OC)c2c(=O)c(OC)c(-c3ccc(OC)c(OC)c3)oc2c1`
Solution: 0.977 (inactive)

Exercise: Param item: COC(=O)C1OC(=O)C2OC23C1(C)CCC1C2(C)C(OC(C)=O)CC(OC(C)=O)C(C)(C)C2CC(=O)C13C (centres undefined)
Solution: 0.988 (inactive)

Exercise: Next: CCCCC1C(=O)N(c2ccccc2)N(c2ccc(O)cc2)C1=O (centres undefined)
Solution: 0.994 (inactive)

Exercise: Next entry: Oc1ccc2c(c1)OCC1(O)Cc3cc(O)c(O)cc3C21 (centres undefined)
Solution: 0.98 (inactive)

Exercise: Okay, and `COc1ccccc1/C=C\C(=O)O` ?
Solution: 1.04 (inactive)

Exercise: Please answer likewise for `Cc1cc(OC(=O)c2c(C)cc(O)cc2O)cc(O)c1C(=O)O`
Solution: 0.981 (inactive)

---

- Test Protocol: chemical genetic growth profiling, strain panel (AID 1159580);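 also: tested at 20 µM; growth read once vehicle control cultures reached saturation at 30 °C; 1 = growth at the plate median or of vehicle wells; lower values mean less growth of the strain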
- Condition Details: S. cerevisiae deletion strains, growth OD, locus YGL253W, strain hxk2, hits give low values
The campaign covered roughly 5,500 compounds. About 2,000 (36%) were called active. Inconclusive results (about 18%) are left out. The list shows a part of the results.
Experimental Readout: normalized growth

Solved entries (count: 3):
| Compound | normalized growth |
| --- | --- |
| COC(=O)[C@@]1(C)CCC[C@]2(C)c3ccc(O)c(C(C)C)c3CCC12 (stereo partly specified) | 0.951 (inactive) |
| Cc1cc(C2CCCCC2)n(O)c(=O)c1 | 0.058 (active) |
| COc1ccc(Cl)cc1C(=O)NCCc1ccc(S(=O)(=O)NC(=O)NC2CCCCC2)cc1 | 1 (inactive) |

Exercise: Request the reported normalized growth associated with `COc1cccc2c(C)cc(=O)[nH]c12`
Solution: 0.891 (active)

Exercise: Repeat with Oc1cc2c(cc1O)C1c3ccc(O)c(O)c3OCC1(O)C2 (stereo unspecified)
Solution: 1.01 (inactive)

---

- Test Protocol: chemical genetic growth profiling, strain panel (AID 1159580);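 also: tested at 20 µM; growth read once vehicle control cultures reached saturation at 30 °C; 1 = growth at the plate median or of vehicle wells; lower values mean less growth of the strain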
- Condition Details: S. cerevisiae deletion strains, growth OD, locus YJL166W, strain qcr8
Screen size: about 5,500 compounds; about 2,000 (36%) were called active. Roughly 18% stayed inconclusive and do not appear here. Cut-off read from the data, not from the text of the source: active = normalized growth mostly below about 0.91 (no sharp cut-off); inconclusive = no clear call, values can overlap the other calls; inactive = mostly above about 0.92. Some of the results follow.
Write down one outcome, taken from active, inactive

| Compound | Class Name |
| --- | --- |
| N#Cc1nn(-c2c(Cl)cc(C(F)(F)F)cc2Cl)c(N)c1S(=O)C(F)(F)F (stereo not drawn) | inactive |

Exercise: Hi, sorry to bother you, what did the test record for CC(C)c1c(O)c(-c2cc3c(c(C(C)C)c2O)CCC2C(C)(C)CCC[C@]32C)cc2c1CCC1C(C)(C)CCC[C@]21C (stereo partly drawn) ?
Solution: inactive

Exercise: Likewise for CCN(Cc1ccncc1)C(=O)C(CO)c1ccccc1 (stereo not drawn) ?
Solution: inactive

Exercise: Can you handle COc1ccc2c(c1)CCC1C2CC[C@@]2(C)C1CC[C@@H]2O (stereo partly drawn) next?
Solution: active

Exercise: Ok, now NS(=O)(=O)c1cc(C2(O)NC(=O)c3ccccc32)ccc1Cl (stereo not drawn)
Solution: inactive

Exercise: One more compound: `CN1C[C@H](C(=O)N[C@]2(C)O[C@@]3(O)[C@@H]4CCCN4C(=O)[C@H](Cc4ccccc4)N3C2=O)C[C@@H]2c3cccc4[nH]cc(c34)C[C@H]21`
Solution: inactive

Exercise: Also NC(=O)NCCCC(N)C(=O)O (stereo not drawn) , if possible.
Solution: inactive
